System: SUP-HD1 (Hodgkin's Lymphoma)
Procedure Summary: combination Emax (second highest fraction inhibited in the dose matrix, 72 h); higher = more inhibition; extreme values may be limits of the assay
Measured Parameter: combination Emax
// no unit string in output, number only

Recorded combination Emax, per entry:
[
  {
    "Compound": "Cc1c2c(nn1C)CSCc1cc(n(C)n1)CSc1cc(c3ccccc3c1)OCCCc1c(C(=O)O)n(C)c3c-2c(Cl)ccc13 [AZD5991] + CCN(CCO)CCCOc1ccc2c(Nc3cc(CC(=O)Nc4cccc(F)c4)[nH]n3)ncnc2c1 [AZD2811] (first compound max 1 µM, 7x7, partner max 1 µM)",
    "Quantitative Readout": 0.787
  },
  {
    "Compound": "COc1nnc2ccc(N3CCC(c4ccc(OCCN5CCN(C)C(=O)[C@H]5C)cc4)CC3)nn12 [AZD5153] + C=CCn1c(=O)c2cnc(Nc3ccc(N4CCN(C)CC4)cc3)nc2n1-c1cccc(C(C)(C)O)n1 [AZD1775] (first compound max 1 µM, partner max 1 µM)",
    "Quantitative Readout": 0.783
  },
  {
    "Compound": "CC1(C)CCC(CN2CCN(c3ccc(C(=O)NS(=O)(=O)c4ccc(NCC5CCOCC5)c([N+](=O)[O-])c4)c(Oc4cnc5[nH]ccc5c4)c3)CC2)=C(c2ccc(Cl)cc2)C1 [Venetoclax] + C1CN(CCC1(C(=O)N[C@@H](CCO)C2=CC=C(C=C2)Cl)N)C3=NC=NC4=C3C=CN4 [Capivasertib] (first compound max 1 µM, 7x7, partner max 3 µM)",
    "Quantitative Readout": 0.877
  },
  {
    "Compound": "CC1(C)CCC(CN2CCN(c3ccc(C(=O)NS(=O)(=O)c4ccc(NCC5CCOCC5)c([N+](=O)[O-])c4)c(Oc4cnc5[nH]ccc5c4)c3)CC2)=C(c2ccc(Cl)cc2)C1 [Venetoclax] + C[C@@H](Nc1cc(F)cc(F)c1)c1cc(C(=O)N(C)C)cc2c(=O)cc(N3CCOCC3)oc12 [AZD8186] (first compound max 1 µM, 7x7, partner max 3 µM)",
    "Quantitative Readout": 0.839
  },
  {
    "Compound": "Cc1c2c(nn1C)CSCc1cc(n(C)n1)CSc1cc(c3ccccc3c1)OCCCc1c(C(=O)O)n(C)c3c-2c(Cl)ccc13 [AZD5991] + C=CCn1c(=O)c2cnc(Nc3ccc(N4CCN(C)CC4)cc3)nc2n1-c1cccc(C(C)(C)O)n1 [AZD1775] (first compound max 1 µM, partner max 1 µM)",
    "Quantitative Readout": 0.82
  }
]

Please look at the following compound next.
QUERY: I have this compound here, C[C@@H](c1ccc2nccn2c1)n1nnc2ncc(-c3cnn(C)c3)nc21 [Savolitinib] + CC1(C)CCC(CN2CCN(c3ccc(C(=O)NS(=O)(=O)c4ccc(NCC5CCOCC5)c([N+](=O)[O-])c4)c(Oc4cnc5[nH]ccc5c4)c3)CC2)=C(c2ccc(Cl)cc2)C1 [Venetoclax] (first compound max 1 µM, 7x7, partner max 1 µM) , and I need its recorded combination Emax.
RESULT: 0.792

* * *

Tested on: SW1463 (Colorectal Carcinoma)
Procedure Summary: combination Emax (second highest fraction inhibited in the dose matrix, 72 h); higher = more inhibition; extreme values may be limits of the assay
Each entry below carries its reported combination Emax.

[
  {
    "Compound": "CC1(C)CCC(CN2CCN(c3ccc(C(=O)NS(=O)(=O)c4ccc(NCC5CCOCC5)c([N+](=O)[O-])c4)c(Oc4cnc5[nH]ccc5c4)c3)CC2)=C(c2ccc(Cl)cc2)C1 [Venetoclax] + C[C@@H]1COCCN1C2=NC(=NC(=C2)C3(CC3)[S@](=N)(=O)C)C4=C5C=CNC5=NC=C4 [AZD6738] (first compound max 1 µM, 7x7, partner max 10 µM)",
    "Measured On": "SW1463 (Colorectal Carcinoma)",
    "combination Emax": 0.411
  }
]

QUERY: What does the data say about its combination Emax? Entry: Cc1c2c(nn1C)CSCc1cc(n(C)n1)CSc1cc(c3ccccc3c1)OCCCc1c(C(=O)O)n(C)c3c-2c(Cl)ccc13 [AZD5991] + CCN(CCO)CCCOc1ccc2c(Nc3cc(CC(=O)Nc4cccc(F)c4)[nH]n3)ncnc2c1 [AZD2811] (first compound max 1 µM, 7x7, partner max 1 µM)
RESULT: 0.268

QUERY: combination Emax for CN(C)CCCOc1ccc(-c2ccc3ncc4c(c3c2)n(C2CCOCC2)c(=O)n4C)cn1 [AZD0156] + O=C(c1cc(Cc2n[nH]c(=O)c3ccccc23)ccc1F)N1CCN(C(=O)C2CC2)CC1 [Olaparib] (first compound max 3 µM, partner max 3 µM) ?
RESULT: 0.169

QUERY: Recorded combination Emax for CC1(C)CCC(CN2CCN(c3ccc(C(=O)NS(=O)(=O)c4ccc(NCC5CCOCC5)c([N+](=O)[O-])c4)c(Oc4cnc5[nH]ccc5c4)c3)CC2)=C(c2ccc(Cl)cc2)C1 [Venetoclax] + COc1cc(Nc2ncc3c(n2)-c2ccc(Cl)cc2C(c2c(F)cccc2OC)=NC3)ccc1C(=O)O [Alisertib] (first compound max 1 µM, 7x7, partner max 10 µM) , please?
RESULT: 0.656

QUERY: Given the entry CC1(C)CCC(CN2CCN(c3ccc(C(=O)NS(=O)(=O)c4ccc(NCC5CCOCC5)c([N+](=O)[O-])c4)c(Oc4cnc5[nH]ccc5c4)c3)CC2)=C(c2ccc(Cl)cc2)C1 [Venetoclax] + C1CN(CCC1(C(=O)N[C@@H](CCO)C2=CC=C(C=C2)Cl)N)C3=NC=NC4=C3C=CN4 [Capivasertib] (first compound max 1 µM, 7x7, partner max 3 µM) , report its measured combination Emax.
RESULT: 0.11

* * *

System: GCIY (Gastric Carcinoma);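 also: after 72 h of two-drug dosing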
Procedure Summary: Bliss excess, mean over the matrix (fraction); higher = more synergy
Quick reference: Bliss excess of the listed items.
Keep it simple and answer with nothing but the number.

QUERY: Data request, read-out Bliss excess, for C[C@@H](c1ccc2nccn2c1)n1nnc2ncc(-c3cnn(C)c3)nc21 [Savolitinib] + CC1(C)CCC(CN2CCN(c3ccc(C(=O)NS(=O)(=O)c4ccc(NCC5CCOCC5)c([N+](=O)[O-])c4)c(Oc4cnc5[nH]ccc5c4)c3)CC2)=C(c2ccc(Cl)cc2)C1 [Venetoclax] (first compound max 1 µM, 7x7, partner max 1 µM)
RESULT: -0.0732

QUERY: # Bliss excess lookup, item O=C(c1cc(Cc2n[nH]c(=O)c3ccccc23)ccc1F)N1CCN(C(=O)C2CC2)CC1 [Olaparib] + COc1nnc2ccc(N3CCC(c4ccc(OCCN5CCN(C)C(=O)[C@H]5C)cc4)CC3)nn12 [AZD5153] (first compound max 10 µM, 7x7, partner max 1 µM)
RESULT: -0.0248

QUERY: Bliss excess for Cn1cnc2c(F)c(Nc3ccc(Br)cc3Cl)c(C(=O)NOCCO)cc21 [Selumetinib] + CCN(CCO)CCCOc1ccc2c(Nc3cc(CC(=O)Nc4cccc(F)c4)[nH]n3)ncnc2c1 [AZD2811] (first compound max 10 µM, 7x7, partner max 1 µM) ?
RESULT: -0.0127

QUERY: Reported Bliss excess for CC1(C)CCC(CN2CCN(c3ccc(C(=O)NS(=O)(=O)c4ccc(NCC5CCOCC5)c([N+](=O)[O-])c4)c(Oc4cnc5[nH]ccc5c4)c3)CC2)=C(c2ccc(Cl)cc2)C1 [Venetoclax] + C=CCn1c(=O)c2cnc(Nc3ccc(N4CCN(C)CC4)cc3)nc2n1-c1cccc(C(C)(C)O)n1 [AZD1775] (first compound max 1 µM, partner max 1 µM) : what is it?
RESULT: 0.111

QUERY: May I ask what Bliss excess has been recorded for CC1(C)CCC(CN2CCN(c3ccc(C(=O)NS(=O)(=O)c4ccc(NCC5CCOCC5)c([N+](=O)[O-])c4)c(Oc4cnc5[nH]ccc5c4)c3)CC2)=C(c2ccc(Cl)cc2)C1 [Venetoclax] + Cc1cc2ncnn2cc1Nc1ncc2c(n1)n(C1CCOCC1)c(=O)n2C [AZD7648] (first compound max 1 µM, 7x7, partner max 10 µM) ?
RESULT: -0.0232

QUERY: What value of Bliss excess has been reported for the following molecule? O=C(c1cc(Cc2n[nH]c(=O)c3ccccc23)ccc1F)N1CCN(C(=O)C2CC2)CC1 [Olaparib] + Cc1c2c(nn1C)CSCc1cc(n(C)n1)CSc1cc(c3ccccc3c1)OCCCc1c(C(=O)O)n(C)c3c-2c(Cl)ccc13 [AZD5991] (first compound max 10 µM, 7x7, partner max 1 µM)
RESULT: -0.041

QUERY: Bliss excess lookup needed for NC1(C(=O)N[C@@H](CCO)c2ccc(Cl)cc2)CCN(c2ncnc3[nH]ccc23)CC1 [Capivasertib] + C[C@@H]1COCCN1C2=NC(=NC(=C2)C3(CC3)[S@](=N)(=O)C)C4=C5C=CNC5=NC=C4 [AZD6738] (first compound max 10 µM, 7x7, partner max 10 µM) , thanks.
RESULT: -0.128

QUERY: Quick one: Bliss excess for CC1(C)CCC(CN2CCN(c3ccc(C(=O)NS(=O)(=O)c4ccc(NCC5CCOCC5)c([N+](=O)[O-])c4)c(Oc4cnc5[nH]ccc5c4)c3)CC2)=C(c2ccc(Cl)cc2)C1 [Venetoclax] + Cn1cnc2c(F)c(Nc3ccc(Br)cc3Cl)c(C(=O)NOCCO)cc21 [Selumetinib] (first compound max 1 µM, 7x7, partner max 3 µM) ?
RESULT: -0.12

QUERY: Value lookup for Bliss excess; key = CN(C)CCCOc1ccc(-c2ccc3ncc4c(c3c2)n(C2CCOCC2)c(=O)n4C)cn1 [AZD0156] + C=CCn1c(=O)c2cnc(Nc3ccc(N4CCN(C)CC4)cc3)nc2n1-c1cccc(C(C)(C)O)n1 [AZD1775] (first compound max 1 µM, partner max 1 µM)
RESULT: -0.0428

QUERY: Entry CN(CCO)CC[C@H](CSc1ccccc1)Nc1ccc(S(=O)(=O)NC(=O)c2ccc(N3CCC([C@@H](O)c4ccccc4-c4ccc(Cl)cc4)CC3)cc2)cc1S(=O)(=O)C(F)(F)F [AZD4320] + CS(=O)(=O)CCNCc1ccc(-c2ccc3ncnc(Nc4ccc(OCc5cccc(F)c5)c(Cl)c4)c3c2)o1 [Lapatinib] (first compound max 1 µM, 7x7, partner max 10 µM) has what Bliss excess?
RESULT: 0.0352

QUERY: Given the entry CN(CCO)CC[C@H](CSc1ccccc1)Nc1ccc(S(=O)(=O)NC(=O)c2ccc(N3CCC([C@@H](O)c4ccccc4-c4ccc(Cl)cc4)CC3)cc2)cc1S(=O)(=O)C(F)(F)F [AZD4320] + C[C@@H](Nc1cc(F)cc(F)c1)c1cc(C(=O)N(C)C)cc2c(=O)cc(N3CCOCC3)oc12 [AZD8186] (first compound max 1 µM, 7x7, partner max 3 µM) , report its measured Bliss excess.
RESULT: 0.0022

QUERY: What does the data say about its Bliss excess? Entry: CCN(CCO)CCCOc1ccc2c(Nc3cc(CC(=O)Nc4cccc(F)c4)[nH]n3)ncnc2c1 [AZD2811] + C[C@@H]1COCCN1C2=NC(=NC(=C2)C3(CC3)[S@](=N)(=O)C)C4=C5C=CNC5=NC=C4 [AZD6738] (first compound max 1 µM, 7x7, partner max 10 µM)
RESULT: -0.0326
